- System: Saccharomyces cerevisiae;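 further: PSI is a weighted mean of sequencing reads over stability bins, variants kept only with over 10 reads, mCherry proximal and sfGFP distal, peptide attached via GGGS linker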
- Assay Comment: protein stability index of tFT-peptide fusion (C-terminal peptide) (PSI (0-1 scale)); higher = more stable (slower turnover)
- Applied Conditions: genetic background: wild type; temperature: 30 C
# maps each entry to its protein stability index

{"columns": ["Sequence Record", "protein stability index"],
 "data": [
  ["RILLSPLSQSQP", 0.695],
  ["VGLGGTGGESRY", 0.706],
  ["HLSSPPSLLPPP", 0.657],
  ["GVENAHLFYLYL", 0.636],
  ["PPRSLPPPTSPL", 0.731],
  ["LVLVRPGSVSPE", 0.731],
  ["QTDHINKTTAKI", 0.684],
  ["MALAVRVVSCGA", 0.366],
  ["VRPPRLSSCLLS", 0.656],
  ["RQESYYLYHTAR", 0.717],
  ["LWVGVVGRVRGV", 0.661],
  ["CYLGSGFLFFLL", 0.521],
  ["IGRVSVWDQKVA", 0.673],
  ["DRTITPSSVISL", 0.705],
  ["VGGWGWLPLPWC", 0.678],
  ["FVASRFLRCLVL", 0.495],
  ["GGAPRSSGRAGE", 0.691],
  ["LPLRPPPSLLSR", 0.689]
]}

The reported numbers originate from the supplement of paper PMC10724198.
